All figures here come from paper PMC4876925.

# MEASUREMENT_TARGET: αvβ3 (Homo sapiens, UniProt P05106+P06756)
# EXPERIMENTAL_PROTOCOL: Integrin competitive binding assay with CisoDGRC-peroxidase
pEC50: −log10 of the molar value. Residues, ends and D or L forms follow the SMILES beside them.
TEST_READOUT: pEC50

N=C(N)NCCC[C@@H]1NC(=O)CNC(=O)[C@H](CC(N)=O)NC(=O)CNC(=O)[C@H](CS)NC(=O)CNC1=O [N1, c(CGNGRG)] (cyclo(CGNGRG))	5.00
